molecular target: Recombinant bovine HSC70 (Stressgen) (bovine) (UniProt P19120); test: SPR, BIAcore 3000; HSC70 immobilised, peptide injected; 1:1 Langmuir fit; row for analyte at 1.56 µM
Sequence (P19120 whole entry): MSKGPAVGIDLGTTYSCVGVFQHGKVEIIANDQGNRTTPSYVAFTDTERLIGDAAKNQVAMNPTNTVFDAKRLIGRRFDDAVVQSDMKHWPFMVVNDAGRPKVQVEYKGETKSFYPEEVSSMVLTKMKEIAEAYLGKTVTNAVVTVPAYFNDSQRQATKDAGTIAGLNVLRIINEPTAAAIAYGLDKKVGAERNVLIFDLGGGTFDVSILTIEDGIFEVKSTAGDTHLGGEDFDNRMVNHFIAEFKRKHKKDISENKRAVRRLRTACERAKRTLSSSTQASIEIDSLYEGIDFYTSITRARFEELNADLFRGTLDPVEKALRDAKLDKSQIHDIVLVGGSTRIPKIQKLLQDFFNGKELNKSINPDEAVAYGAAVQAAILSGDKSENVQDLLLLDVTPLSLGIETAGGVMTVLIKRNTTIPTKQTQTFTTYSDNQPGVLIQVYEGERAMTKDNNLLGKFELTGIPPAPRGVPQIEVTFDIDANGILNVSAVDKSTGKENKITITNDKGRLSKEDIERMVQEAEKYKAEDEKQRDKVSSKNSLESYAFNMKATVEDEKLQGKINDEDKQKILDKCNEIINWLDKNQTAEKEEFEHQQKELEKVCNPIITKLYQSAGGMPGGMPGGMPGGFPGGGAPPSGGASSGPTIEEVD
pKd: −log10 of the molar value. Non-standard residues stand in square brackets, D forms with d. No end group written: not given here. Met(O) = CS(=O)CC[C@H](N)C(=O)O; pS = N[C@@H](COP(=O)(O)O)C(=O)O
RESULT TYPE: pKd

a: RIH[Met(O)]VYSKR[pS]GKPRGYAFIEY
b: RIHMVYSKR[pS]GKPRGYAFIEY [P140 peptide (SEQ ID NO: 1 in which serine at position 10 is phosphorylated; SEQ ID NO: 4)]
Input: Dear colleague, could you let me know whether a or b has the lower recorded pKd? Thanks. Give the chosen item's label as your response.
Output: b
(b: 5.16, a: 5.72)
